Each item that follows carries a reported Tm.
# assay comment: melting temperature; melt of duplexes
# condition notes: sodium 0.0675 M; strand 1 µM
assay readout: Tm (°C)

> print(dat)
                                  substance  reported.value
1  CGACGTGCATAATGTGCTG+CAGCACATCCCGCACGTCG ((((((((...((((((((+))))))))...))))))))            46.9
2  CGACGTGCTAGATGTGCTG+CAGCACATTTCGCACGTCG ((((((((.(.((((((((+)))))))).).))))))))            50.1
3  CGACGTGCTATATGTGCTG+CAGCACATGCAGCACGTCG (((((((((..((((((((+))))))))..)))))))))            52.5
4  CGACGTGCGCTATGTGCTG+CAGCACATCAAGCACGTCG ((((((((...((((((((+))))))))...))))))))            51.4
